All figures here come from the OPERA property sets (Mansouri et al. 2018).

compound: CC(C)(CO)Cc1ccccc1
melting point: 34.5 °C
//
compound: O=C1c2ccccc2C(=O)C1(CN1CCOCC1)c1ccccc1
melting point: 88 °C
//
compound: NC(=O)COC(=O)c1ccccc1
melting point: 121 °C
//
compound: C1CCCCCC1
melting point: -8 °C
//
compound: Clc1cc2c(oc3c(Cl)cccc32)c(Cl)c1Cl
melting point: 190 °C
//
compound: CC1(c2ccccc2)C(=O)NC(=O)NC1=O
melting point: 220 °C
//
compound: O=[N+]([O-])c1ccc(F)cc1
melting point: 21 °C
//
compound: CO[C@H]1[C@H](O)[C@H](O[C@H]2CC[C@@]3(C)[C@H](CC[C@@H]4[C@@H]3CC[C@]3(C)[C@@H](C5=CC(=O)OC5)CC[C@]43O)C2)O[C@@H](C)[C@@H]1O
melting point: 221 °C
//
compound: Cn1cnc2nc(N)[nH]c(=O)c21
melting point: 370 °C
//
compound: Cc1ccc2cc3c(ccc4ccccc43)c3c2c1CC3
melting point: 180 °C
//
compound: C/C=C/C(=O)c1ccccc1
melting point: 20.5 °C
//
compound: CCOCCOCCO
melting point: -76 °C
//
compound: CC(C)(C)Cl
melting point: -26 °C
//
compound: CCOC(=O)C(C(=O)OCC)C(C(=O)OCC)C(=O)OCC
melting point: 77 °C
//
compound: O=[N+]([O-])c1ccc(N=Nc2ccccc2)cc1
melting point: 133 °C
//
compound: CN1C(=O)CN=C(c2ccccc2F)c2cc(Cl)ccc21
melting point: 296 °C
//
compound: CCn1cc(C(=O)O)c(=O)c2ccc(C)nc21
melting point: 230 °C
//
compound: Cn1cc[nH]c1=S
melting point: 146 °C
//
compound: CCCCCC(=O)OC
melting point: -71 °C
//
compound: c1ccc2ocnc2c1
melting point: 31 °C
//
compound: CCC=CCC(=O)O
melting point: 12 °C
//
compound: CCOC(=O)CSCCC1NC(C(=O)O)CS1 (stereo not given)
melting point: 142 °C
//
compound: OCCCCCO
melting point: -18 °C
//
compound: NNCCO
melting point: -70 °C
//
compound: C=C(C)C(=O)Nc1ccc(Cl)c(Cl)c1
melting point: 128 °C
//
compound: CC(=O)OC(OC(C)=O)c1ccco1
melting point: 53.3 °C
//
compound: c1ccc(C2CCc3ccccc3O2)cc1 (stereo not given)
melting point: 46.3 °C
//
compound: C=CCCCCCCCCCCC
melting point: -13 °C
//
compound: CC1(C)CC(=O)CC(C)(C)N1
melting point: 36 °C
//
compound: CCCCCCNC(=O)c1ccc(O)c(O)c1
melting point: 140 °C
//
compound: Oc1ccc(N=Nc2ccccc2)c(O)c1
melting point: 170 °C
//
compound: N#Cc1c[nH]c2ccccc12
melting point: 180 °C
//
compound: CC(Cl)(Cl)C(=O)OCCOc1cc(Cl)c(Cl)cc1Cl
melting point: 49.5 °C
//
compound: NC=S
melting point: 26.5 °C
//
compound: O/N=C\c1ccccc1
melting point: 36.5 °C
//
compound: O=C(Cl)c1cccc([N+](=O)[O-])c1
melting point: 36 °C
//
compound: c1ccc2nn(C3CCCCC3)nc2c1
melting point: 46.5 °C
//
compound: CCCC(=O)NN
melting point: 45.5 °C
//
compound: Clc1cccc2c1Oc1ccccc1O2
melting point: 104 °C
//
compound: CC(=O)O[C@]1(C(C)=O)CC[C@H]2[C@@H]3C=C(Cl)C4=CC(=O)CC[C@]4(C)[C@H]3CC[C@@]21C
melting point: 213 °C
